This collection of values is drawn from patent US20220064286A1.

tested-target: cynomolgus monkey (cyno) TIGIT protein (cynomolgus monkey, UniProt A0A7N9I9V4 89-209)
Sequence (A0A7N9I9V4 entry or part of it): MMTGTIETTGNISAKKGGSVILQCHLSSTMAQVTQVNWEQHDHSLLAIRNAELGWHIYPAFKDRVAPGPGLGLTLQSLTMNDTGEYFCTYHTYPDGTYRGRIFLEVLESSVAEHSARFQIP
measurement-protocol: SPR, monovalent affinity
parameter: Kd (nM)
Form entry: value (nM) — number only.

Fill in the blank: the reported Kd of 4.1A4 (antibody, V domains shown, OMT rat-derived human antibody; also called 4.1A4.Q1.C96) VH: QVQLVQSGSELKKPGASVKVSCKASGYTLTNYPMNWVRQAPGRGLEWMGWINTNTGSPAYAQDFTERFVFSLDTSVTTAYLQISSLKAEDTAVYYCARTAITSVYHFDYWGQGTLVTVSS VL: DIQLTQSPSFLSASVGDRVTITCRASQGISSYLAWYQQKPGKAPRVLIYGATTLQSGVPSRFSGSESGTEFTLTISSLQPEDLATYYCQKLNSHPCSFGQGTKVEIK is ____.
2.6
